Reference source for all entries: patent US20240190831A1

Experiment: In vitro rat liver S9 stability assay (formation of tafamidis)
Assay type: in vitro ADME
Details: rat liver S9, 1 μM test compound, 37° C.
Readout label: Formation of tafamidis at 60 min

Some compounds with known Formation of tafamidis at 60 min results, for comparison:
O=C(NC1CCN(CCF)C1)c1ccc2nc(-c3cc(Cl)cc(Cl)c3)oc2c1 (centres unmarked) = A (A is <25%)
O=C(c1ccc2nc(-c3cc(Cl)cc(Cl)c3)oc2c1)N1CCCC(O)C1 (centres unmarked) = A (A is <25%)
O=C(c1ccc2nc(-c3cc(Cl)cc(Cl)c3)oc2c1)N1CCC(O)CC1 = A (A is <25%)
O=C(OC1CCN(c2ccncn2)C1)c1ccc2nc(-c3cc(Cl)cc(Cl)c3)oc2c1 (centres unmarked) = A (A is <25%)
O=C(NC1CCC(F)(F)CC1)c1ccc2nc(-c3cc(Cl)cc(Cl)c3)oc2c1 = A (A is <25%)
O=C(NC1CCC1)c1ccc2nc(-c3cc(Cl)cc(Cl)c3)oc2c1 = A (A is <25%)

Now look at this one.
Problem: Form field: reported Formation of tafamidis at 60 min of O=C(c1ccc2nc(-c3cc(Cl)cc(Cl)c3)oc2c1)N1CC(O)C1
Result: A (A is <25%)

* * *

Test: In vitro rat liver S9 stability assay (formation of tafamidis)
Assay type: in vitro ADME
Conditions: rat liver S9, 1 μM test compound, 37° C.
Experimental: A stability assay in liver S9 (rat or human) was used to evaluate the ability of a compound provided herein to convert to an active TTR stabilizer. The test compound was added to liver S9 and incubated at 37° C. in a water bath at a concentration of 1 μM. […] After centrifugation, an aliquot of supernatant was analyzed by LC-MS/MS. The percentage of formation of active agent was calculated at each time point.
Readout label: Formation of tafamidis at 60 min

Some compounds with known Formation of tafamidis at 60 min results, for comparison:
O=C(c1ccc2nc(-c3cc(Cl)cc(Cl)c3)oc2c1)N1C[C@@H]2[C@@H](O)[C@@H]2C1 = A (A is <25%)
O=C(O[C@H]1CCN2CCC[C@@H]12)c1ccc2nc(-c3cc(Cl)cc(Cl)c3)oc2c1 (relative stereo) = A (A is <25%)
O=C(O[C@H]1CCCN2CCC[C@H]12)c1ccc2nc(-c3cc(Cl)cc(Cl)c3)oc2c1 (single isomer, unassigned) = A (A is <25%)
O=C(OC1CCN(CCO)C1)c1ccc2nc(-c3cc(Cl)cc(Cl)c3)oc2c1 (stereo not shown) = A (A is <25%)
CN1CCC(NC(=O)c2ccc3nc(-c4cc(Cl)cc(Cl)c4)oc3c2)C1 (stereo not shown) = A (A is <25%)

Problem: Form field: reported Formation of tafamidis at 60 min of CN(C)CCN(C)C(=O)c1ccc2nc(-c3cc(Cl)cc(Cl)c3)oc2c1
Result: A (A is <25%)

Problem: Form field: reported Formation of tafamidis at 60 min of O=C(N[C@H]1C[C@H](O)C1)c1ccc2nc(-c3cc(Cl)cc(Cl)c3)oc2c1
Result: A (A is <25%)

* * *

Test: In vitro rat liver S9 stability assay (formation of tafamidis)
Format: in vitro ADME
Settings: rat liver S9, 1 μM test compound, 37° C.
Readout label: Formation of tafamidis at 60 min

Some molecules with known Formation of tafamidis at 60 min results, for comparison:
O=C(OC1CCc2nc[nH]c2C1)c1ccc2nc(-c3cc(Cl)cc(Cl)c3)oc2c1 (centres unmarked) [Compound 60] = A (A is <25%)
O=C(c1ccc2nc(-c3cc(Cl)cc(Cl)c3)oc2c1)N1CCCC1CO (centres unmarked) [Compound 85] = A (A is <25%)
O=C(OC1CCN2CCCCC12)c1ccc2nc(-c3cc(Cl)cc(Cl)c3)oc2c1 (centres unmarked) [Compound 55] = B (B is ≥25 to <50%)
O=C(O[C@H]1C[C@H](O)C1)c1ccc2nc(-c3cc(Cl)cc(Cl)c3)oc2c1 [Compound 64] = B (B is ≥25 to <50%)
CC1(OC(=O)c2ccc3nc(-c4cc(Cl)cc(Cl)c4)oc3c2)CCNCC1.Cl [Compound 123] = A (A is <25%)
CC(N1CCC(OC(=O)c2ccc3nc(-c4cc(Cl)cc(Cl)c4)oc3c2)C1)C(F)(F)F (centres unmarked) [Compound 45] = B (B is ≥25 to <50%)

Now look at this one.
Problem: Form field: reported Formation of tafamidis at 60 min of NC(=O)c1ccc2nc(-c3cc(Cl)cc(Cl)c3)oc2c1 [Compound 4]
Result: A (A is <25%)
